- TARGET_OR_TEST_SYSTEM: T1, UNK ZnF1-3 (human, UniProt Q9C0B0 31-174)
- T1 sequence: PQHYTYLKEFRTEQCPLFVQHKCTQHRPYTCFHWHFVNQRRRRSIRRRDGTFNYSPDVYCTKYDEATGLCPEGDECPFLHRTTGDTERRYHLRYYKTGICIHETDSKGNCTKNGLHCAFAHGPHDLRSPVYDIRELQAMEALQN
- ASSAY_PROCEDURE: nsRBNS (natural sequence RNA bind-n-seq); RBNS binding buffer (assumed for nsRBNS): 25 mM Tris pH 7.5, 150 mM KCl, 3 mM MgCl2, 0.01% Triton X-100, 500 ug/ml BSA, 20 U/ml SUPERase-In, 4 C; UNK is unkempt and MSI1 is Musashi-1; names of the RNAs are library labels; protein concentration not given here; high values mean tight binding
The full ranking holds about 24,000 sequences; the median of “enrichment r” is about 0.99, and the highest 2% start at about 3.7. The full list was thinned out, with the highest values kept by preference.

BINDER	UNIT_TAG	binding signal
63494515_63562186_783_3pUTR_ENSMUSG00000025964_ENSMUST00000114107|mouse|control|control (ssRNA) RNA: GGGAGUUCUACAGUCCGACGAUCUAGUGGAUCUCCACGUAGUCAGAAGAUAGCAAACCAUUGUUCAGUGUGAGGUCAAGAAUGAACUUGGAGCCGAAAGCUUCGAUCUGGAAGCUUGCCUGGGCCAGAUGCACAGCCUUAUUGCAACAGAGGAUUGAGCAUCA	enrichment R	1.25
133533018_133533138_1595_3pUTR_ENSG00000113575_ENST00000481195|human|control|control (ssRNA) RNA: GGGAGUUCUACAGUCCGACGAUCUAGAAGGGAGGCCUUGGUAAUUAUUUUUAAAAAUGUUCAUUAAGCUCCAAUGAUUGUUUGCUGCUAUCCUUAUCUACAGUCAUGCUGAGUAAAGCUAUAGCUAAAUGGAAGUUAAAUUGUCAACAGAGGAUUGAGCAUCA	enrichment R	1.37
44216504_44217224_307_CDS_ENSG00000096384_ENST00000371646|human|control|control (ssRNA) RNA: GGGAGUUCUACAGUCCGACGAUCCAAAGUCAGGGUACGUUCCUGAGGGUUGGGGAUGAUGUCAAUUUUCAGCUCUUUACCACUGUCCAACUUCGAAGGGUCUGUCAGGCUCUCAUAGCGAAUCUUGUCCAAGGCAUCAGAAGCCAACAGAGGAUUGAGCAUCA	enrichment R	0.999
chr7:75932113:75932114:+_ENSG00000106211_ENST00000248553|hu_hu|hu_hu_hu_mus_False|8_18 (ssRNA) RNA: GGGAGUUCUACAGUCCGACGAUCCUGCGACCACUCAUCGGGCAACCGGGGCACCCCGAAAGCUUGAUCGAAGAGGCGGCUGUGUGCAGGGUACCAGUCCCGGAAUGGUUCCCAGCUGCCCCGCAGGAGCGAGAAGGAGGGCACCAACAGAGGAUUGAGCAUCA	enrichment R	1.07
chr19:60011576:60011577:-_ENSMUSG00000040022_ENSMUST00000171986|mus_hu|FALSE|FALSE (ssRNA) RNA: GGGAGUUCUACAGUCCGACGAUCUUUUGCUGUAAAUGGAUUGGUUGACUCAUAAUCAAAAUAGUCCUGGCGAUUUUCACUAAAUGCAUUAGGUGAUUUCAAGUCACAAGGGCUAUCAGAUCCCCCAUUGUUAAGUUUAUCAGACAACAGAGGAUUGAGCAUCA	enrichment R	0.505
chr15:25293464:25293465:-_ENSMUSG00000045763_ENSMUST00000058845|mus_hu|FALSE|FALSE (ssRNA) RNA: GGGAGUUCUACAGUCCGACGAUCAAAAAUAUCUGGAGAGGAAGAAUGGAGGAUUGGCAUUGAGAUCCAUGUGGACAAGCUAAGUGGGCUCUGUCUGAAAGCUGGCAUUCAUCCACAACAUUAAAAAAAUAUCAAAAUAAGAAACAACAGAGGAUUGAGCAUCA	enrichment R	15.3
chr1:46159212:46159213:+_ENSG00000159596_ENST00000372025|hu_mus|hu_hu_hu_mus_True|38_58 (ssRNA) RNA: GGGAGUUCUACAGUCCGACGAUCUCUGAUCCCUCCCAAGAAAGCUAGGAAACCGGCUCCAUAAGCCAUCUGAGUGAAAGCUAAUAUGGGGAUAUAAGUUUUUGUCAUUACCAUGAGAAGUGGGGGAGCAGUAAAGGGGAUUAACAACAGAGGAUUGAGCAUCA	enrichment R	1.29
chr15:103023242:103023243:-_ENSMUSG00000009575_ENSMUST00000118152|mus_mus|FALSE|FALSE (ssRNA) RNA: GGGAGUUCUACAGUCCGACGAUCAACUAGCAGCAUUGAUGAGGGGUUAAGGGAUUGGGGACAGAAACUCACCAAGGUCACUAAGUACUUCCAAACUUGGAAGUAGCUCAGUGAGGGCUAAAAAAACUUCGACUGAAGGUAUCCCAACAGAGGAUUGAGCAUCA	enrichment R	1.71
chr4:87735950:87735951:+_ENSG00000163629_ENST00000511467|hu_hu|FALSE|FALSE (ssRNA) RNA: GGGAGUUCUACAGUCCGACGAUCCUCACCAUGUCCUUGUAACAAUGUCUGCUAUCAUCAAAUGCUGCCUUUAAUCAUCCCUAAGAUCUGCAUUGUUUGGUUAGUGUUAAAAUUUUGUAAAUAAUUAUCAUAGGUUAAAGUAGCCAACAGAGGAUUGAGCAUCA	enrichment R	3.93
chr20:57609950:57609951:-_ENSG00000101166_ENST00000355937|hu_mus|FALSE|FALSE (ssRNA) RNA: GGGAGUUCUACAGUCCGACGAUCGAUCUUUUGUUUAGAUCAAAAGUCACAGCCUUACCCCACCUCAUUAAAAAAAAAGAUCUACCUAAAAUAAUUGUGUCUUUUAAAUAACAAAUAAUAUGAUGCCAGCUUGAGAGUCCUGGACAACAGAGGAUUGAGCAUCA	enrichment R	2.8
chr15:25293464:25293465:-_ENSMUSG00000045763_ENSMUST00000058845|mus_hu|motif|central (ssRNA) RNA: GGGAGUUCUACAGUCCGACGAUCAAAAAUAUCUGGAGAGGAAGAAUGGAGGAUUGGCAUUGAGAUCCAUGUGGACAAGCGGAGUGGGCUCUGUCUGAAAGCUGGCAUUCAUCCACAACAUUAAAAAAAUAUCAAAAUAAGAAACAACAGAGGAUUGAGCAUCA	enrichment R	8.1
15109990_15111016_889_CDS_ENSG00000179889_ENST00000396410|human|control|control (ssRNA) RNA: GGGAGUUCUACAGUCCGACGAUCUGAGGAGACAUAACCCAGAGCCAAUGUUGCCAGAUUCACACCCUCCACAUGAAGCCAUAUGCCAUACUGCUCACAGAGUUCUUUCAAUCUCCCAAUCUUGUCUGUGUGUCCUACUGCUGCCAACAGAGGAUUGAGCAUCA	enrichment R	1.36
47141246_47141366_1218_CDS_ENSMUSG00000038291_ENSMUST00000170416|mouse|control|control (ssRNA) RNA: GGGAGUUCUACAGUCCGACGAUCUUCUUCCUCACGCAUGAGCUUCUCAUACAGGUCGCUGACGAGGAAGGAGGGGUAAUACCGCUCCCUCAGCACCUCGGACACAUCGGCUUGGAUUUUGCUGAACACCUCGAUGCCUCUGUUCAACAGAGGAUUGAGCAUCA	enrichment R	0.729

Value source: paper PMC12136788
